test system: guinea pig ileum; assay type: cell-based; settings: untreated guinea pig ileum; read-out: agonist activity IC50 in the untreated ileum
measure: IC50
Answer with the figure and its unit, nothing else.

Incoming: Given N[C@@H](Cc1ccc(O)cc1)C(=O)N1CCC[C@H]1C(=O)N[C@@H](Cc1c[nH]c2ccccc12)C(=O)N[C@@H](Cc1ccccc1)C(=O)O , respond with its IC50.
Outgoing: 5 µM

Incoming: Name the recorded IC50 of the compound listed here: N[C@@H](Cc1ccc(O)cc1)C(=O)N1CCC[C@H]1C(=O)N[C@@H](Cc1ccccc1)C(=O)N[C@@H](Cc1ccccc1)C(=O)O
Outgoing: 20 µM
